target or system: canine CD3 on canine T cells (canine PBMC) (canine, UniProt P27597 22-202)
Sequence (P27597 22-202 limits assumed, chain 1 of 3): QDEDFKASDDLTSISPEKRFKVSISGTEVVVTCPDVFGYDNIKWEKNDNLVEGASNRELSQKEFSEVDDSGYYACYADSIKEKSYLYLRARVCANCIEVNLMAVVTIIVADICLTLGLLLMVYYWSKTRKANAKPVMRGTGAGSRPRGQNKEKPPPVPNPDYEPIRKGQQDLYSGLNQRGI
Sequence (chain, as listed by the source limits assumed, chain 2 of 3): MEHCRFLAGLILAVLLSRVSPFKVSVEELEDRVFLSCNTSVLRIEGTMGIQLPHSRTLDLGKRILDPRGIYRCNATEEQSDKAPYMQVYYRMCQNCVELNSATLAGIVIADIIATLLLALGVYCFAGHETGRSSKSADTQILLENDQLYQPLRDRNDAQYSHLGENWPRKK
Sequence (chain, as listed by the source limits assumed, chain 3 of 3): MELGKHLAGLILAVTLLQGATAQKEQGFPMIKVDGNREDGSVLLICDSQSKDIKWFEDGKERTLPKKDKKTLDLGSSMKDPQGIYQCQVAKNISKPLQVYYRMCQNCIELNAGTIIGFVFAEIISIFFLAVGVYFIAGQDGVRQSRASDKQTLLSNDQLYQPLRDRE
assay summary: cell-based or functional assay
Assign Ki67 Proliferation, Day 9, IS to each entry below.

Query: Please give the measured Ki67 Proliferation, Day 9, IS for this binder: PMX200 (monospecific anti-canine CD3, canine IgG-B effector function deficient Fc) (antibody, V domains shown) VH: ELTLQESGPGLVKPSQTLSLTCIVSGGSVTSSYYWNWIRQSPGRGLEWMGYWTGNTNYNPALQGRIFITADTAKNQFSLQLRSMTTEDTAVYYCARGGYGYHYGMDYWGHGTSVFVSS VL: SYVLTQLPSKSVALKQPAHITCGGDNIGSKRVHWYQQKLGQAPALIISFDNSRPTGIPERFSGANSGNTATLTISGALAEDEADYYCQVWDSTAKASIFGGGTHLTVL
Result: 1.29

Query: PMX180 (monospecific anti-canine CD3, canine IgG-B effector function deficient Fc) (antibody, V domains shown) VH: ELTLQESGPGLVKPSQTLSLTCVVSGGSVTSNYYWNWIRQRPGRGLEWMGYWTGSTNYNPAFQGRISITADTAKKQFSLQLRSMTIEDTAVYYCARRGIPIFFDYWGQGTLVTVSS VL: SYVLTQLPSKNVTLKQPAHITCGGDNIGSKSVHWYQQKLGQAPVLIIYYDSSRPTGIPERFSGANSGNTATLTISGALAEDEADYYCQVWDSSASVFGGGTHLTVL ?
Result: 1.77

Query: PMX159 (monospecific anti-canine CD3, canine IgG-B effector function deficient Fc) (antibody, V domains shown) VH: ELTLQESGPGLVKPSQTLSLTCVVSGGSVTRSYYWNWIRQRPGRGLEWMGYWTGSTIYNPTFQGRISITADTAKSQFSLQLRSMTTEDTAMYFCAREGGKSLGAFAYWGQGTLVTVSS VL: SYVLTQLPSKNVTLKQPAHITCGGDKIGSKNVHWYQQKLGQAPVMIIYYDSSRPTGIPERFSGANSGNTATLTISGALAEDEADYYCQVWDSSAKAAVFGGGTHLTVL ?
Result: 1.28
